- TARGET_OR_TEST_SYSTEM: (Pseudomonas aeruginosa) (UniProt Q9RMS5)
- Sequence (Q9RMS5 as listed by the source): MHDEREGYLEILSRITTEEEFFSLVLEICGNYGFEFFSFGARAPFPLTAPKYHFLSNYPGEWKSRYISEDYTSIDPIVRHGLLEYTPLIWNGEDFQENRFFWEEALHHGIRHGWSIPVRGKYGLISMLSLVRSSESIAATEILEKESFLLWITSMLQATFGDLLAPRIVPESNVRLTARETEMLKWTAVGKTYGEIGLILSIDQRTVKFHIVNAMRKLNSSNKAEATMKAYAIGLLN
- ASSAY_METHOD_TEXT: Agonist activity at Pseudomonas aeruginosa QscR expressed in Escherichia coli assessed as production of beta-galactosidase at 5 uM relative to dodecanoyl homoserine lactone
- Type: functional
ENDPOINT_LABEL: Activity (%)

STRUCTURE_STRING	UNIT_INFO	Activity
CCCCCCCC(=O)N[C@H]1CCOC1=O	%	59
CC(C)(C)OC(=O)Nc1ccc(CC(=O)N[C@H]2CCOC2=O)cc1	%	61
O=C(CC(=O)N[C@@H]1CCOC1=O)Cc1ccccc1	%	59
